The reported numbers originate from PubChem BioAssay.

experiment_notes: basal RPMI8226 mitochondrial membrane potential changes, profiling panel, cell-based, JC-1 fluorescence, 24 h, 100 nL compound (AID 1169); further: test concentration not given here
experimental_conditions: RPMI8226 myeloma, JC-1 mitochondrial potential fluorescence, higher = more signal
value_kind: z-score

Below, each entry is followed by its recorded z-score result.
Q: Return reported z-score; argument: COC(=O)CC=C[C@@H](C)[C@@H](C=NOC[C@H]1O[C@H](c2ccccc2)C=C[C@@H]1Oc1ccc(OC)cc1)NS(=O)(=O)c1ccc(C)cc1
Result: 0.689

Q: Return reported z-score; argument: COC(=O)CC=C[C@@H](C)[C@@H](C=NO[C@H](C)c1cn([C@H](CO)Cc2ccccc2)nn1)NS(=O)(=O)c1ccc(C)cc1
Result: 0.696

Q: Return reported z-score; argument: CC(=O)Nc1ccc([C@@H]2N[C@H](C(=O)O)CC[C@H]2C)cc1
Result: -0.355

***
Q: Return reported z-score; argument: CC(C)CCN1CCc2nc(COc3ccccc3)c3c(c2C1)CO[C@@H](C)C3
Result: -0.724

----------
experiment_notes: binders from COS7 lysate, DM2A8 probe, primary screen, torsin A project, cell lysate, small-molecule microarray, fluorescence 635/667 (AID 1065)
experimental_conditions: higher = more signal, COS7 lysate expressing mutant human TOR1A
value_kind: composite z-score

Q: Return reported composite z-score; argument: CCOC(=O)[C@H](CC(C)C)NC(=O)CCC1CC(OC(=O)NCc2ccc3c(c2)OCO3)CC2(CCCC(COC(=O)NCc3cccc(C(F)(F)F)c3)O2)O1 (stereo partly specified)
Result: -0.249

Q: Return reported composite z-score; argument: CO[C@@H]1C=CCC(=O)N2CCC[C@H]2C(=O)OC[C@@H](C)C(=O)OC[C@H]1C
Result: 1.7

Q: Return reported composite z-score; argument: CO[C@@H]1COC(=O)[C@H](CCSC)NC(=O)CC=C[C@@H](C)COC(=O)CCC[C@H]1C
Result: 2.94

***
Q: Return reported composite z-score; argument: CSCC[C@@H]1NC(=O)CC=C[C@@H](C)COC(=O)[C@@H](C)COC1=O
Result: 2.62

Q: Return reported composite z-score; argument: C[n+]1ccc(-c2ccc(CO)cc2)cc1
Result: -0.688

Q: Return reported composite z-score; argument: CCOC(=O)[C@H](CC(C)C)NC(=O)CCC1CC(OC(=O)NCc2cccc3ccccc23)CC2(CCCC(COC(=O)NCc3cccc(C(F)(F)F)c3)O2)O1 (stereo partly specified)
Result: 0.0221

----------
experiment_notes: binders of probe aHhip on microarray, primary screen, stem cell growth factor project, biochemical, small-molecule microarray, fluorescence 635/667 (AID 1087);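 further: score merges spot fluorescence at 667nm with spot signal to noise ratio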
experimental_conditions: higher = more signal
Classify as follows. Reported composite z-score greater than or equal to 0.03: fulfilled. Reported composite z-score below: not fulfilled.

Q: composite z-score >= 0.03 for C[C@@H](ON=C1[C@H]2CCn3c(=O)n(-c4ccccc4)c(=O)n3[C@H]2[C@H](O)[C@@H]2O[C@H]12)c1cn([C@@H]2COC[C@H]2O)nn1 ?
Result: not fulfilled

Q: composite z-score >= 0.03 for C[C@H]1Cc2c(COc3ccccc3)nc3c(c2CO1)CN(CCOc1ccccc1)CC3 ?
Result: not fulfilled

Q: composite z-score >= 0.03 for C#CCCCON=C1C[C@@H](O)[C@@H](O)[C@@H]2[C@@H]3C(=O)N(c4ccc(F)cc4F)C(=O)[C@@H]3CC[C@@H]12 ?
Result: fulfilled

Q: composite z-score >= 0.03 for C[C@@H](c1ccccc1)N1C(=O)[C@H]2[C@H]3[C@H](O)[C@H](O)CC(=NO[C@@H]4O[C@H](CO)[C@@H](O)[C@H](O)[C@H]4O)[C@H]3CC[C@H]2C1=O ?
Result: not fulfilled

Q: composite z-score >= 0.03 for C#CCCCON=C1[C@H]2CCn3c(=O)n(-c4ccccc4)c(=O)n3[C@H]2[C@H](O)[C@@H]2O[C@H]12 ?
Result: not fulfilled

***
Q: composite z-score >= 0.03 for CCCCC#C[C@@H]1C=C[C@H](OC(C)=O)[C@@H](COC(C)=O)O1 ?
Result: not fulfilled

Q: composite z-score >= 0.03 for O=C1CCCC(C2=CCCCC2=O)C1 (configuration not stated) ?
Result: fulfilled

Q: composite z-score >= 0.03 for COC(=O)CC=C[C@@H](C)[C@@H](C=NO[C@H](C)c1cn([C@H](CO)Cc2ccccc2)nn1)NS(=O)(=O)c1ccc(C)cc1 ?
Result: not fulfilled

Q: composite z-score >= 0.03 for CC(C)=CCCC(C)=CCON=C1C[C@@H](O)[C@@H](O)[C@@H]2[C@@H]3C(=O)N(Cc4ccccc4)C(=O)[C@@H]3CC[C@@H]12 ?
Result: fulfilled

Q: composite z-score >= 0.03 for CC(C)CON=C1C[C@@H](O)[C@@H](O)[C@@H]2[C@@H]3C(=O)N(Cc4ccc5c(c4)OCO5)C(=O)[C@@H]3CC[C@H]12 ?
Result: not fulfilled

Q: composite z-score >= 0.03 for COC(=O)[C@@H]1CC[C@@H](C)[C@H](c2ccc(Br)cc2)N1 ?
Result: not fulfilled

Q: composite z-score >= 0.03 for COC(=O)[C@@H]1CC[C@H](C)[C@@H](c2ccc(C)cc2)N1C(=O)c1ccc(C=NOCC[C@@H]2C=C[C@H](OC(C)=O)[C@@H](COC(C)=O)O2)cc1 ?
Result: fulfilled
